Measured values drawn from ChEMBL document CHEMBL1201862 for this set.

What GI50 was measured for each of the following?
Tested on: CCRF-CEM
Assay: NCI tumour cell line growth inhibition, 48 h
Calls of active or inactive are those of the source. Rule as the data show it: active = GI50 up to about 1.1 µM and inactive = higher.

GET /value?item= CC(C)(C)OC(=O)N(CCCCNC(=O)C(F)(F)F)CCCNC(=O)C(F)(F)F &field=GI50 returns > 100 µM (inactive)

Just so you know, measured GI50 for O=C1C(N2CCOCC2)=C(Cl)C(=O)c2ncccc21 came out at 0.524 µM (active)

Sure, the documented GI50 for C1CSCCCSCCCSCCCSCCCSC1 is 8.55 µM (inactive)

The recorded GI50 for O=c1c2ccccc2n2c(S)nnc2n1-c1ccccc1 is > 100 µM (inactive)

Lookup result for C=CCCCN1CCCC(C)C1=S (centres undefined) ; measured GI50: > 100 µM (inactive)

The molecule CN(C)/N=N/c1ccc(C(N)=O)cc1 showed GI50 equal to > 100 µM (inactive)

# GI50 (molecule: CCCCCCCCCCCCCCCCCC(=O)NCCCNCCCNC(=O)CCCCCCCCCCCCCCCCC ) is > 100 µM (inactive)

GI50 reported for this molecule CC(C)c1ccc2c(c1)CCC1C(C)(C)[C@@H](O)CC[C@]21C (some centres undefined) : 27.9 µM (inactive)

Given item O/N=C(/C(Cl)=C(Cl)Cl)C(Cl)Cl , the value recorded as its GI50 is 12.4 µM (inactive)

Entry CC1(C)CC[C@]2(C)CC[C@]3(C)C(=CC[C@@H]4[C@@]5(C)CCC(=O)C(C)(C)[C@@H]5[C@H](O)C[C@]43C)[C@@H]2C1 , GI50 reported as 30.8 µM (inactive)

The molecule identified as CC1(C)O[C@@H](CBr)C[C@H](C[C@H]2C[C@@H](O)C[C@@H](CCOCc3ccccc3)O2)O1 registered its GI50 at 47.3 µM (inactive)

Sure, the documented GI50 for O=c1[nH]nc2ccccc2c1Cl is 6.14 µM (inactive)

Looking up O=C(Nc1ccccc1Br)c1cccc([N+](=O)[O-])c1O , I found its GI50 recorded as 2.78 µM (inactive)

Nc1cc(S(=O)(=O)O)cc2cc(S(=O)(=O)O)c(/N=N/c3ccc(-c4ccc(/N=N/c5c(S(=O)(=O)O)cc6cc(S(=O)(=O)O)cc(N)c6c5O)cc4)cc3)c(O)c12 yielded GI50 of > 100 µM (inactive)

Quick note, GI50 for C/C(=N\O)C1CC(CC(=O)O)C1(C)C (centres undefined) landed at > 100 µM (inactive)

# molecule COc1ccc2oc(=N)c(C(N)=S)cc2c1 ; its GI50 = 20.5 µM (inactive)

Value of GI50 reported for the molecule CNC(=O)c1nnn(C2CCCCC2)c1S is > 100 µM (inactive)

Lab note: measured GI50 of COCC12CC(CC1=O)C1C2ON2c3ccccc3C(=O)C12c1ccccc1 (centres undefined) was 61.2 µM (inactive)

# GI50 of NC(Cc1ccc(O)cn1)C(=O)NC(C(=O)O)c1ccccc1 (centres undefined) = > 100 µM (inactive)

Measured GI50, O=c1[nH]c(=O)n(C2OC(COP(=O)(O)OP(=O)(O)O)C(O)C2O)cc1F (centres undefined) : 0.817 µM (active)

Per the records, this molecule ( NC(=O)CC(N)c1nnn[nH]1 (centres undefined) ) has GI50 equal to > 100 µM (inactive)

The molecule CC(C)=CCC/C(=C/CC/C(C)=C/CCc1ccoc1)C(=O)O showed GI50 equal to > 100 µM (inactive)

Input C=C1c2[nH]c3ccccc3c2CC(C(=O)O)N1C(O)c1ccc(S(=O)(=O)O)cc1 (centres undefined) . Output GI50: > 100 µM (inactive)

Memo: NC1CC(=O)c2csc(Cl)c21 (centres undefined) , reported GI50: 0.778 µM (active)

So, O=[N+]([O-])c1ccc2c(c1)OCCOCCOc1ccc([N+](=O)[O-])cc1OCCOCCO2 ? Its GI50 was > 100 µM (inactive)

The molecule listed as CNS(=O)(=O)c1ccccc1C(=N)c1ccccc1 shows GI50 equal to > 100 µM (inactive)

The molecule identified as O=C1CCN2c3ccccc3[C@H]3Cc4cccc(c4[C@@H]2C3)CCO1 registered its GI50 at 28.8 µM (inactive)

The recorded GI50 for OCCCCn1cnc2c(O)ncnc21 is > 100 µM (inactive)

GI50 for COC(=O)C1Cc2c([nH]c3ccccc23)-c2[nH]c3ccccc3c2CC(NC(C)=O)C(=O)N2CCCC2C(=O)N1 (centres undefined) is 93.5 µM (inactive)

Input Cc1nc(N)c(N2CCN(C#N)CC2)c(O)n1 . Output GI50: > 100 µM (inactive)

GI50 recorded for this molecule, N#CC1C(=O)NC23CCCCC2C1c1ccccc1O3 (centres undefined) , is 74.8 µM (inactive)

Short answer for NC(=O)N1N=C2c3ccccc3SC[C@H]2[C@@H]1c1ccccc1 : GI50 was 23.1 µM (inactive)

# molecule CC(Oc1ccc(OCC2CCCCC2)cc1)C(=O)NCCO (centres undefined) ; its GI50 = > 100 µM (inactive)

The measured GI50 associated with O=C(O)c1cc2c(cc1CC(Cc1ccccc1)C(=O)O)CCC2 (centres undefined) reads > 100 µM (inactive)

// Cc1cc2c(cc1Cl)SC(NS(=O)(=O)c1ccc(Cl)cc1)=NS2(=O)=O : GI50 value = 56.8 µM (inactive)

Per the record, C1COC2SC3=C(SC(=C4SC5=C(SCCS5)S4)S3)SC2O1 (centres undefined) has GI50 of > 100 µM (inactive)

Entry CCOC(=O)C(/C(=N/NC(=O)OC)C(=O)Nc1ccc(C(C)=O)cc1)c1cnc2ccccc2n1 (centres undefined) , GI50 reported as > 100 µM (inactive)

response.value for COC(=O)C1=CC2C(=O)c3ccccc3C1(c1ccccc1)N2C1CCCCC1 (centres undefined) (field: GI50) = 15.1 µM (inactive)

GET /value?item= NC(=O)c1ccccc1NC(=O)C(=O)C(C(=O)c1ccc2ccccc2c1)C1OC(=O)c2ccccc21 (centres undefined) &field=GI50 returns 10.3 µM (inactive)

---

Test system: SF-539
Assay: NCI tumour cell line growth inhibition, 48 h
Activity calls are given as the source filed them. Rule as the data show it: active = GI50 up to about 1.1 µM and inactive = higher.
Bench note: report the call from 1 = active, 0 = inactive

Outcome? Cc1ccc(O)c(-c2csc(NCN3CCN(CNc4nc(-c5cc(C)ccc5O)cs4)CC3)n2)c1
0

Test call, this compound: N=c1c2c(=S)n(-c3ccccc3)c(=S)n(-c3ccccc3)c2nc(SCCCN2CCN(c3cccc(Cl)c3)CC2)n1-c1ccccc1
0

Please indicate how the test categorized COC(=O)/C=C(\C)CCC1SC1(C)C (stereo unspecified) .
0

Write down the call the test reported for this compound. Item: c1ccc2c(CNCCCCCCNCc3cccc4ccccc34)cccc2c1
0

Given CCOc1ccc(NC(=O)C(=O)NO)cc1 , state the outcome it received in this test.
0

Assay outcome for CCCN(C(=O)c1ccccc1)C(C#N)c1ccc(C(C#N)N(CCC)C(=O)c2ccccc2)cc1 (stereo unspecified) : what was it?
0

State the result this test recorded for CC1OC(=O)N(CCCC=C2SCCCS2)C1=O (stereo unspecified) .
0

Please state the recorded outcome for this compound: COc1ccc(C(SCC(N)C(=O)O)(c2ccc(OC)cc2)c2ccc(OC)cc2)cc1 (stereo unspecified)
0

Which result was noted for this compound in the test: Cc1ccc2cccc3c2c1CC1(C3=O)S(=O)(=O)OCCOS1(=O)=O
0

// param item: COc1ccc2c3c(n(Cc4ccccc4)c(=O)c2c1)-c1cc(OC)c(OC)cc1C3C (stereo unspecified) ; yields the recorded call
0

Call for entry COC(=O)C(=O)C(CC(=O)Nc1ccc(C)cc1)C(=O)OC (stereo unspecified) :
0

Returns: the outcome recorded for N#Cc1cccc(N2C(=O)c3c(c(-c4ccccc4)c(-c4ccc(Sc5ccc(-c6c(-c7ccccc7)c7c(c(-c8ccccc8)c6-c6ccccc6)C(=O)N(c6cccc(C#N)c6)C7=O)cc5)cc4)c(-c4ccccc4)c3-c3ccccc3)C2=O)c1 in this assay.
0

GET /call?item= COc1ccc(/C(Cl)=C(\C=O)c2ccc(OC)cc2)cc1 returns the recorded outcome of this test.
0

Could you check what this test reported for CC1=C(/C=C/C(C)=C/C=C/C(C)=C/C(=O)Nc2ccc(O)cc2)C(C)(C)CCC1 [FENRETINIDE] ?
1

Which outcome was entered for the compound CCN(CC)c1cc2c3c(c1)CCCN3CCC2 in this test?
0

I would be grateful if you could indicate the recorded call for C[Si](C)(C)OC1(C#N)c2ccccc2CCCC12CCCC2 (stereo unspecified) .
0

What classification did OC1COC2CC(Nc3ccccn3)OC12 (stereo unspecified) end up with in this test?
0

Called result for CCOC(=O)c1ccc(Nc2c3c(nc4ccccc24)CCCC3)cc1
0

For O=C(COc1ccc(Cl)cc1Cl)N/N=C/C=C/c1ccc([N+](=O)[O-])o1 , which call appears in the assay record?
0

Give the logged outcome of this assay for the following compound: COC(=O)CCC(=O)N1CC1C (stereo unspecified)
0

Status in this test for CCOCCOc1ccc(OCCOCC)cc1 ?
0
